Reference source for all entries: patent US20060045953A1

Biological target: hT1R1/hT1R3 umami receptor (Homo sapiens, UniProt Q7RTX0+Q7RTX1)
Construct: expressed in transfected cells; host or cells: HEK293 derivative stably expressing Gα15, clone I-17, expression induced with mifepristone
Sequence (Q7RTX1 21-841): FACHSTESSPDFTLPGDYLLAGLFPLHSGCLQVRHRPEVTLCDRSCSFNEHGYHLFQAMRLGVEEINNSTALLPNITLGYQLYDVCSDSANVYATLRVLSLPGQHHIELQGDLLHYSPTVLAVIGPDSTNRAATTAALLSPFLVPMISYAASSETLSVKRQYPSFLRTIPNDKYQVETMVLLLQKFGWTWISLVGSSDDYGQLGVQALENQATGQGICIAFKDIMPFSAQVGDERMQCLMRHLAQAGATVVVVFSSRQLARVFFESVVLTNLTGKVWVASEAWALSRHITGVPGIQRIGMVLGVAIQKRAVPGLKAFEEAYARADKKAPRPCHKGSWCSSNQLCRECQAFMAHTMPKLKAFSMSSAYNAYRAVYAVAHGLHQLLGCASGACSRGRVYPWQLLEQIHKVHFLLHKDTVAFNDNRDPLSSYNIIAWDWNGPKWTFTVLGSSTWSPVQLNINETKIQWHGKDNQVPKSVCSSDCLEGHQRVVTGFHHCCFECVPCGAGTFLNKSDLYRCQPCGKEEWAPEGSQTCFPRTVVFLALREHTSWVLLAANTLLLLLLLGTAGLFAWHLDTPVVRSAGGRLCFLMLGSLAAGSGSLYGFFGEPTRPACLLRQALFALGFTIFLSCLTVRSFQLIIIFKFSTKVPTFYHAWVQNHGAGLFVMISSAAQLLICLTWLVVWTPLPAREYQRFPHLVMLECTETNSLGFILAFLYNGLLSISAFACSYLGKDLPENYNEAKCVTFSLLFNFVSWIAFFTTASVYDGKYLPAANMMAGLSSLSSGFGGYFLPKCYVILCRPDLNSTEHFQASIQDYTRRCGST
Sequence (Q7RTX0 21-852): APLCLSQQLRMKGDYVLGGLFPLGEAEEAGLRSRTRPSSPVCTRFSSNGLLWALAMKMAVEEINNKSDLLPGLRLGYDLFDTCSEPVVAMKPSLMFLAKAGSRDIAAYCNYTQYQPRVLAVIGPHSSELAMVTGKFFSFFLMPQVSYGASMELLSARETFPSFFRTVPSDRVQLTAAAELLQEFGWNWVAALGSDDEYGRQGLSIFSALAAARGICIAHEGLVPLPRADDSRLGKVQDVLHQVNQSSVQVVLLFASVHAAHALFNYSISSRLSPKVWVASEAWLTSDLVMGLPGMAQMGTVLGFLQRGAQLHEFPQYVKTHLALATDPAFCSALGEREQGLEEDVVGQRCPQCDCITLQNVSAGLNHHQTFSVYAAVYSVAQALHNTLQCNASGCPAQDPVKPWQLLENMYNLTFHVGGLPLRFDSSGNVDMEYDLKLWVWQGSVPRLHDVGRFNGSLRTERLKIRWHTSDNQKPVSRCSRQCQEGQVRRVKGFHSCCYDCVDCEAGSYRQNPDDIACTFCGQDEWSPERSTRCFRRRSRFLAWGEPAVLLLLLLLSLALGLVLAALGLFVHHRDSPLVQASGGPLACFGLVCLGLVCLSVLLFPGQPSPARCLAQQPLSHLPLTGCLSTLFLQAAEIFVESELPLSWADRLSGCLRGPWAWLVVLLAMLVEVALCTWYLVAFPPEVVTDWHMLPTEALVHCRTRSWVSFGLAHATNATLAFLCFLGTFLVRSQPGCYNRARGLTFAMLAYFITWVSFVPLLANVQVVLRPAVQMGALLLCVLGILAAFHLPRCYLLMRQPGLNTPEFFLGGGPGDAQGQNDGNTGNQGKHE
Assay: In vitro hT1R1/hT1R3 umami taste receptor activation assay (FLIPR, dose response)
Format: cell-based
Details: Table A, Umami Amides; read-out: Umami EC50
Experimental: In order to identify new savory flavoring agents and enhancers, including compounds with savory agonist and enhancer activities (dual activity), the compounds of Formula (I) were screened in primary assays and secondary assays including compound dose response and enhancement assay. […] In compound dose response, an EC50 is calculated to reflect the potency of the compound as a savory agonist or enhancer. […]
VALUE_KIND: EC50 (nM)

I = CCCC(CCC)C(=O)Nc1ccc2c(c1)OCO2
II = COC(=O)C(CC(C)C)NC(=O)c1cc2cc(OC)ccc2o1 (stereo in doubt)
// query For this pair, I and II , which shows a numerically higher EC50? // respond with label for picked entry
// result I

I = CC(CCc1ccccc1)NC(=O)c1ccc2c(c1)OCO2 (stereo not shown)
II = CCCC(CCC)NC(=O)c1ccc(OC)c(C)c1
III = COC(=O)[C@@H](CC(C)C)NC(=O)c1ccc2[nH]ccc2c1
IV = CCCC(CCC)NC(=O)c1ccc(CC)cc1 [Example A71, 4-ethyl-N-(heptan-4-yl)benzamide]
// query Arrange items by their EC50 values in increasing order. Please express your ranking as an ordered list of the labels.
// result II, IV, III, I

1 = COc1ccc(C(=O)NC2CCc3ccccc32)cc1Cl (stereo not shown)
2 = CCCC(CCC)NC(=O)c1cc2cccc(OC)c2o1
// query Lower value of EC50 belongs to which: 1 or 2 ? Kindly give the label for the entry you pick.
// result 2

###

Target: hT1R1/hT1R3 umami receptor (Homo sapiens, UniProt Q7RTX0+Q7RTX1)
Construct: expressed in transfected cells; host or cells: HEK293 derivative stably expressing Gα15, clone I-17, expression induced with mifepristone
Test: In vitro hT1R1/hT1R3 umami taste receptor activation assay (FLIPR, dose response)
Type: cell-based
Details: read-out: EC50 for activation of a hT1R1/hT1R3 umami receptor expressed in an HEK293 cell line
pEC50: −log10 of the molar value.
VALUE_KIND: pEC50

COMPOUND: CCCC(CCC)NC(=O)c1ccc2c(c1)OC(C)(C)O2 [Example 20]
TESTED_TARGET: hT1R1/hT1R3 umami receptor (Homo sapiens, UniProt Q7RTX0+Q7RTX1)
ENDPOINT_VALUE: 5.57

COMPOUND: COC(=O)[C@@H](CC(C)C)NC(=O)c1ccc2c(c1)OCO2 [Example 6]
TESTED_TARGET: hT1R1/hT1R3 umami receptor (Homo sapiens, UniProt Q7RTX0+Q7RTX1)
ENDPOINT_VALUE: 6.47

COMPOUND: COc1ccc(CNC(=O)C(=O)NCCc2ccc(C)cn2)c(OC)c1 [Example 155]
TESTED_TARGET: hT1R1/hT1R3 umami receptor (Homo sapiens, UniProt Q7RTX0+Q7RTX1)
ENDPOINT_VALUE: 7.15

COMPOUND: CCCC(CCC)NC(=O)c1ccc2oc(CCl)nc2c1 [Example 45]
TESTED_TARGET: hT1R1/hT1R3 umami receptor (Homo sapiens, UniProt Q7RTX0+Q7RTX1)
ENDPOINT_VALUE: 6.64

COMPOUND: CCCC(CC(C)C)NC(=O)c1ccc(OC)c(C)c1 (stereo not drawn) [Example 52]
TESTED_TARGET: hT1R1/hT1R3 umami receptor (Homo sapiens, UniProt Q7RTX0+Q7RTX1)
ENDPOINT_VALUE: 7.00

COMPOUND: CCCC(CCC)NC(=O)c1ccc2oc(OCC)nc2c1 [Example 43]
TESTED_TARGET: hT1R1/hT1R3 umami receptor (Homo sapiens, UniProt Q7RTX0+Q7RTX1)
ENDPOINT_VALUE: 5.30

COMPOUND: COc1ccc(CNC(=O)C(=O)NCCc2ccccn2)cc1C [Example 135]
TESTED_TARGET: hT1R1/hT1R3 umami receptor (Homo sapiens, UniProt Q7RTX0+Q7RTX1)
ENDPOINT_VALUE: 5.98

COMPOUND: CCCC(CCC)NC(=O)c1ccc2occc2c1 [Example 90, N-(heptan-4-yl)benzofuran-5-carboxamide]
TESTED_TARGET: hT1R1/hT1R3 umami receptor (Homo sapiens, UniProt Q7RTX0+Q7RTX1)
ENDPOINT_VALUE: 5.92

COMPOUND: O=C(NCCc1ccccn1)C(=O)NCc1cccc2c1OCO2 [Example 149]
TESTED_TARGET: hT1R1/hT1R3 umami receptor (Homo sapiens, UniProt Q7RTX0+Q7RTX1)
ENDPOINT_VALUE: 6.77

COMPOUND: CCCC(CCC)NC(=O)c1csc(C)n1 [Example 100]
TESTED_TARGET: hT1R1/hT1R3 umami receptor (Homo sapiens, UniProt Q7RTX0+Q7RTX1)
ENDPOINT_VALUE: 5.14

a = CCCCC/C=C/C(=O)N[C@H](CC(C)C)C(=O)OC [Example 78]
b = COc1ccc(CNC(=O)C(=O)NCCc2ccccn2)c(OC)c1 [Example 123]
// query Could you determine which record has the numerically smaller pEC50? Candidates: a and b Use the label to indicate which entry you chose.
// result a

P = O=C(NC1CCCc2ccccc21)c1ccc2c(c1)OCO2 (stereo not drawn) [Example 7]
Q = COc1ccc(CNC(=O)C(=O)NCCc2cc(C)ccn2)c(OC)c1 [Example 154]
R = CCOc1ccc(CNC(=O)C(=O)NCCc2ccccn2)c(OC)c1 [Example 134]
// query Place the items in sequence of falling pEC50. Put the labels in the requested order and list them out.
// result R, P, Q
(R: 7.00, P: 6.15, Q: 5.79)

I = CC(C)c1ccc(NC(=O)NCCc2ccccn2)cc1 [Example 161]
II = CCCC(CCC)NC(=O)c1cc2ccccc2s1 [Example 34]
// query Identify the entry with the smaller pEC50: I or II . // return label of chosen record
// result I
